TARGET ENTITY: C. P. neuraminidase
STATED CONDITIONS: substrate 25, Dixon plots, 37° C.
MEASURE: Ki (µM)
Field: numeric (µM). Do not append units.

Prompt: Any idea what its Ki is? The compound is CC(=O)NC1C(O)CC(SC(C)C2OC(O)C(O)C(O)C2O)(C(=O)O)OC1C(O)C(O)CO (stereo not shown) [Compound 22a]
Response: 1000

---

Tested on: Clostridium perfringens neuraminidase
Assay type: biochemical
STATED CONDITIONS: C. perfringens neuraminidase; sialoside as substrate, 37° C., 20 min, Lineweaver-Burk
For each record, write down the corresponding Vmax.
Field: numeric (O.D./mU). Do not append units.

Prompt: Any idea what its Vmax is? The compound is CC(=O)N[C@H]1[C@H]([C@H](O)[C@H](O)CO)O[C@@](O[C@H](C)[C@H]2O[C@@H](OCC[Si](C)(C)C)[C@H](O)[C@@H](O)[C@H]2O)(C(=O)O)C[C@@H]1O [Compound 16a]
Response: 0.90

Prompt: Any idea what its Vmax is? The compound is CC(=O)N[C@H]1[C@H]([C@H](O)[C@H](O)CO)O[C@@](OC[C@H]2O[C@@H]3OC(C)(C)O[C@@H]3[C@H]3OC(C)(C)O[C@H]32)(C(=O)O)C[C@@H]1O [Compound 23b, reference compound]
Response: 1.70

Prompt: Any idea what its Vmax is? The compound is CC(=O)N[C@H]1[C@H]([C@H](O)[C@H](O)CO)O[C@@](O[C@@H](C)[C@H]2O[C@@H](OCC[Si](C)(C)C)[C@H](O)[C@@H](O)[C@H]2O)(C(=O)O)C[C@@H]1O [Compound 16b]
Response: 0.22

Prompt: Any idea what its Vmax is? The compound is CC(=O)NC1C(O)CC(OCC2OC(OCC[Si](C)(C)C)C(O)C(O)C2O)(C(=O)O)OC1C(O)C(O)CO (stereo not shown) [Compound 23a, αDNeuAc (2-6) βDGal-OCH2 CH2 Si (CH3)3, reference compound]
Response: 0.88

---

TARGET ENTITY: Arthrobacter ureafaciens neuraminidase (Paenarthrobacter ureafaciens, UniProt Q5W7Q2)
Sequence (Q5W7Q2 39-990): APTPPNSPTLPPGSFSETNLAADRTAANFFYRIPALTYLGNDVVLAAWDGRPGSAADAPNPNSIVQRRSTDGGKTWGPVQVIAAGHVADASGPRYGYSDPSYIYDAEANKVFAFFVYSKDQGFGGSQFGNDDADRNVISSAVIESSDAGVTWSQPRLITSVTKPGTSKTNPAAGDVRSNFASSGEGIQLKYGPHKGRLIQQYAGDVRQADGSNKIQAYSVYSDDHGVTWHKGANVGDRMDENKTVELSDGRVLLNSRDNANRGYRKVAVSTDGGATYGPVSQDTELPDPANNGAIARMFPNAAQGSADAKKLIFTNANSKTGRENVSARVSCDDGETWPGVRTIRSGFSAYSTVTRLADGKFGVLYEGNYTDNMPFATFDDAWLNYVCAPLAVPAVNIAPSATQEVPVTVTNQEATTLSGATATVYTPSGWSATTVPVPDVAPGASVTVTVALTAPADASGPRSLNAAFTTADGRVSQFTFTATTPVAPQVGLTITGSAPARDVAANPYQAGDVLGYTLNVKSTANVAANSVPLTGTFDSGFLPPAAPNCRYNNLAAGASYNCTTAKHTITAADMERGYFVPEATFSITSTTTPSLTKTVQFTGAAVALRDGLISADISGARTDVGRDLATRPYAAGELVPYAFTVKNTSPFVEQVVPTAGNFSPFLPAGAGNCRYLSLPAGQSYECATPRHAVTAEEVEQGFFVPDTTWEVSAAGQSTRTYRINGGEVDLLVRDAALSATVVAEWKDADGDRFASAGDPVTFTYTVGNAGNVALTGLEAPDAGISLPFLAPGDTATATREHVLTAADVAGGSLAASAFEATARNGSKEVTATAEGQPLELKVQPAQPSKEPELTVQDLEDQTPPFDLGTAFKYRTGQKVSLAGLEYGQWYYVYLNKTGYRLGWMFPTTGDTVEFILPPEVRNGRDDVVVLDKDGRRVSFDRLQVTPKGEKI
PROTOCOL TEXT: colorimetric neuraminidase assay (sialoside hydrolysis), A. ureafaciens
Assay type: biochemical
STATED CONDITIONS: A. U. neuraminidase; 0.75 mM sialoside, 37° C., 0-120 min; FIGS. 1 and 3 panel A
MEASURE: rate of hydrolysis (time course)

molecule="CC(=O)N[C@H]1[C@H]([C@H](O)[C@H](O)CO)O[C@@](O[C@H](C)[C@H]2O[C@@H](OCC[Si](C)(C)C)[C@H](O)[C@@H](O)[C@H]2O)(C(=O)O)C[C@@H]1O [Compound 16a]" measure="rate of hydrolysis (time course)" data_value="efficiently hydrolyzed"
molecule="CC(=O)NC1C(O)CC(OCC2OC(OCC[Si](C)(C)C)C(O)C(O)C2O)(C(=O)O)OC1C(O)C(O)CO (centres unmarked) [Compound 23a, αDNeuAc (2-6) βDGal-OCH2 CH2 Si (CH3)3, reference compound]" measure="rate of hydrolysis (time course)" data_value="efficiently hydrolyzed"

---

For each record, write down the corresponding Km.
Test system: Clostridium perfringens neuraminidase
Format: biochemical
STATED CONDITIONS: read-out: Michaelis Constant Km

Prompt: Fill in the recorded Km for this molecule, with Clostridium perfringens neuraminidase as test system: CC(=O)N[C@H]1[C@H]([C@H](O)[C@H](O)CO)O[C@@](OC[C@H]2O[C@@H]3OC(C)(C)O[C@@H]3[C@H]3OC(C)(C)O[C@H]32)(C(=O)O)C[C@@H]1O [Compound 23b, reference compound]
Response: 1440 µM

Prompt: Fill in the recorded Km for this molecule, with Clostridium perfringens neuraminidase as test system: CC(=O)NC1C(O)CC(OCC2OC(OCC[Si](C)(C)C)C(O)C(O)C2O)(C(=O)O)OC1C(O)C(O)CO (stereo not shown) [Compound 23a, αDNeuAc (2-6) βDGal-OCH2 CH2 Si (CH3)3, reference compound]
Response: 650 µM

Prompt: Fill in the recorded Km for this molecule, with Clostridium perfringens neuraminidase as test system: CC(=O)N[C@H]1[C@H]([C@H](O)[C@H](O)CO)O[C@@](O[C@@H](C)[C@H]2O[C@@H](OCC[Si](C)(C)C)[C@H](O)[C@@H](O)[C@H]2O)(C(=O)O)C[C@@H]1O [Compound 16b]
Response: 3200 µM

Prompt: Fill in the recorded Km for this molecule, with Clostridium perfringens neuraminidase as test system: CC(=O)N[C@H]1[C@H]([C@H](O)[C@H](O)CO)O[C@@](O[C@H](C)[C@H]2O[C@@H](OCC[Si](C)(C)C)[C@H](O)[C@@H](O)[C@H]2O)(C(=O)O)C[C@@H]1O [Compound 16a]
Response: 2150 µM

---

For each record, write down the corresponding Vmax.
TARGET ENTITY: UniProt:Q5W7Q2
PROTOCOL TEXT: colorimetric neuraminidase assay (sialoside hydrolysis), A. ureafaciens
Assay type: biochemical
STATED CONDITIONS: A. ureafaciens neuraminidase; sialoside as substrate, 37° C., 20 min, Lineweaver-Burk
Field: numeric (O.D./mU). Do not append units.

Prompt: Any idea what its Vmax is? The compound is CC(=O)N[C@H]1[C@H]([C@H](O)[C@H](O)CO)O[C@@](O[C@H](C)[C@H]2O[C@@H](OCC[Si](C)(C)C)[C@H](O)[C@@H](O)[C@H]2O)(C(=O)O)C[C@@H]1O [Compound 16a]
Response: 0.91

Prompt: Any idea what its Vmax is? The compound is CC(=O)N[C@H]1[C@H]([C@H](O)[C@H](O)CO)O[C@@](O[C@@H](C)[C@H]2O[C@@H](OCC[Si](C)(C)C)[C@H](O)[C@@H](O)[C@H]2O)(C(=O)O)C[C@@H]1O [Compound 16b]
Response: 0.05

Prompt: Any idea what its Vmax is? The compound is CC(=O)N[C@H]1[C@H]([C@H](O)[C@H](O)CO)O[C@@](OC[C@H]2O[C@@H]3OC(C)(C)O[C@@H]3[C@H]3OC(C)(C)O[C@H]32)(C(=O)O)C[C@@H]1O [Compound 23b, reference compound]
Response: 0.73

Prompt: Any idea what its Vmax is? The compound is CC(=O)NC1C(O)CC(OCC2OC(OCC[Si](C)(C)C)C(O)C(O)C2O)(C(=O)O)OC1C(O)C(O)CO (stereo not shown) [Compound 23a, αDNeuAc (2-6) βDGal-OCH2 CH2 Si (CH3)3, reference compound]
Response: 0.7
